Reference for the values: the RNAGym collection of RNA variant scans (doi:10.7554/elife.80360)

B1: HDV Ribozyme (parent)
chain: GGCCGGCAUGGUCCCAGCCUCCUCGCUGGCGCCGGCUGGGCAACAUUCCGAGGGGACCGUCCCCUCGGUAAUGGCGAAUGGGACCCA

- Variants of: B1
- run description: self-cleavage, relative activity (ratio to wild type); higher = more cleavage; co-transcriptional
Classification field: 1 = self-cleavage at or over 0.4; -1 = self-cleavage under 0.4.

Solved entries (count: 5):
# mutation key, category
records = [
    ("C22A G25U", -1),
    ("C63U A77C", -1),
    ("U72G A78U", -1),
    ("C18U U46C", -1),
    ("G59U G76U", 1),
]

Qu. Hello, I need to know if G38A has measured self-cleavage not below 0.4. Thanks!
Ans. -1

Qu. Answer whether self-cleavage of G5U U47G is greater than or equal to 0.4.
Ans. -1

Qu. Hi, just wondering whether A43C G81U shows self-cleavage of 0.4 or higher.
Ans. -1

Qu. Please check the record G28U G68C and state if its self-cleavage is at or above 0.4.
Ans. -1

Qu. Hello, I need to know if C15A C64G has measured self-cleavage not below 0.4. Thanks!
Ans. 1

Qu. Record G38U U65A ; criterion: self-cleavage no lower than 0.4. Met?
Ans. -1

Qu. I'd appreciate it if you could say whether C15U A51G has self-cleavage at least equal to 0.4.
Ans. 1

Qu. Confirm if self-cleavage reported for the variant G31U G73A is 0.4 or above.
Ans. -1
